Source listed as paper PMC10515382.

Measured IC50 at 48 h of individual entries
- ASSAY NAME: Cytotoxicity assay (MTT) against MRC-5 cells
- Assay type: cell-based
- MEASUREMENT PARAMETERS: human, MRC-5 cells (normal embryonic lung cell line), read-out: Cytotoxic activity (IC50)

COMPOUND	IC50 at 48 h
COc1ccc(/C=C/C(=O)c2ccc(N)cc2)cc1O	115 µM
COc1cccc2c1C(=O)c1c(O)c3c(c(O)c1C2=O)C[C@@](O)(C(=O)CO)C[C@@H]3O[C@H]1C[C@H](N)[C@H](O)[C@H](C)O1 [doxorubicin, reference compound]	3.03 µM
COc1cc(/C=C/C(=O)c2ccc(N)cc2)cc(OC)c1OC	70.3 µM
COc1cccc(/C=C/C(=O)c2ccc(N)cc2)c1	116 µM
COc1ccc(/C=C/C(=O)c2ccc(N)cc2)c(OC)c1OC	99.3 µM
